Catalogue of Fold Increase over UTC (caspase-3 activity, apoptosis) values
Tested on: T47D cells
Test Method Notes: Caspase-3 activity assay (apoptosis) in T47D cells
Experimental Parameters: T47D cells, 200 nM oligomeric compound, 48 hours; experiment of Table 11
In the oligonucleotide strings, read from the 5' end, every base follows the letter of its sugar. An asterisk marks phosphorothioate; unmarked linkages are phosphodiester. Other units and linkages are bracketed, terminal groups are in braces. A string of capitals states the bases alone. e = 2'-O-(2-methoxyethyl) (MOE); [5mC] = 5-methylcytosine; d = 2'-deoxy (DNA)

Query: Item under review: 328404 (antisense eG*eT*eA*eG*eA*dT*d[5mC]*dT*d[5mC]*dA*dA*dA*dA*dA*dG*e[5mC]*eT*eA*e[5mC]*e[5mC]) [compound 328404] . Reported Fold Increase over UTC (caspase-3 activity, apoptosis)?
Reply: 0.9 fold

Query: Request: NNNNNNNNNNNNNNNNNNNN [ISIS 29848, reference compound]
Reply: 3.2 fold

Query: Request: 328406 (antisense eA*eG*e[5mC]*eA*eA*dG*dT*d[5mC]*dT*dA*d[5mC]*dT*d[5mC]*d[5mC]*dT*e[5mC]*eA*eG*eG*eG) [compound 328406]
Reply: 1.0 fold

Query: Request: 328390 (eG*eG*eA*eG*e[5mC]*d[5mC]*dT*dT*dG*d[5mC]*dG*d[5mC]*dT*d[5mC]*dA*eG*e[5mC]*eA*eT*eT; antisense) [compound 328390]
Reply: 0.9 fold

Query: Request: 328427 (antisense eG*eA*eT*eG*eT*d[5mC]*dA*d[5mC]*dT*dG*dA*dG*dG*dA*dA*eA*eT*e[5mC]*eA*e[5mC]) [compound 328427]
Reply: 0.8 fold

Query: Request: 328639 (eG*eA*e[5mC]*eT*eA*d[5mC]*dT*dG*dT*dT*dG*dA*dG*dA*dG*eG*eA*eA*e[5mC]*eA; antisense) [compound 328639]
Reply: 0.8 fold

Query: Request: 328413 (antisense eA*eA*eT*eT*eG*dT*dA*dT*dG*dA*d[5mC]*dA*dT*dT*dA*eA*eA*eT*e[5mC]*eA) [compound 328413]
Reply: 0.8 fold

Query: Request: 328653 (eG*eT*eG*eT*eT*d[5mC]*dA*dG*dA*dA*dA*d[5mC]*d[5mC]*d[5mC]*dA*eG*eG*e[5mC]*e[5mC]*e[5mC]; antisense) [compound 328653]
Reply: 1.1 fold

Query: Request: 328689 (eT*eA*e[5mC]*eA*eA*dT*dT*dT*dG*dG*dG*dA*dG*dT*d[5mC]*e[5mC]*eT*eG*eA*eA; antisense) [compound 328689]
Reply: 0.8 fold

* * *

System: Glut4
Test Method Notes: Glut4 mRNA expression in adipocytes (real-time PCR)
Type: cell-based, human
Experimental Parameters: adipocytes, 250 nM oligomeric compound, day nine post-transfection, relative to control (1.0); Table 16
In the oligonucleotide strings, read from the 5' end, every base follows the letter of its sugar. An asterisk marks phosphorothioate; unmarked linkages are phosphodiester. Other units and linkages are bracketed, terminal groups are in braces. A string of capitals states the bases alone. e = 2'-O-(2-methoxyethyl) (MOE); [5mC] = 5-methylcytosine
Assign MET to entries whose Glut4 (mRNA expression) meets or exceeds 0.5; assign NOT MET to the rest.

Here's what some known entries look like.
Substance: 327919 (antisense eG*eA*eA*eA*e[5mC]*e[5mC]*e[5mC]*eA*eG*e[5mC]*eA*eG*eA*e[5mC]*eA*eA*eT*eG*eT*eA*eG*e[5mC]*eT) [compound 327919]
Assigned Class: NOT MET

Substance: 327967 (antisense eA*e[5mC]*eT*eG*eT*eA*e[5mC]*eA*eA*eA*e[5mC]*eT*eA*e[5mC]*eT*eA*e[5mC]*e[5mC]*eT*e[5mC]*eA) [compound 327967]
Assigned Class: MET

Substance: 327931 (antisense eA*eA*e[5mC]*e[5mC]*eA*eT*eA*e[5mC]*eA*eA*e[5mC]*e[5mC]*eT*eA*e[5mC]*eT*eA*e[5mC]*e[5mC]*eT*e[5mC]*eA) [compound 327931]
Assigned Class: MET

Query: Is Glut4 (mRNA expression) for 327955 (antisense eG*e[5mC]*e[5mC]*e[5mC]*eT*eT*eT*e[5mC]*eA*eT*e[5mC]*eA*eT*eT*eG*e[5mC]*eA*e[5mC]*eT*eG) [compound 327955] at or above 0.5?
Reply: NOT MET

Query: Request: 327934 (antisense eG*eG*eT*eA*e[5mC]*eA*eA*eT*e[5mC]*eA*eA*e[5mC]*eG*eG*eT*e[5mC]*eG*eA*eT*eG*eG*eT) [compound 327934]
Reply: NOT MET

Query: Request: 327888 (antisense eA*eA*eT*eG*e[5mC]*e[5mC]*e[5mC]*e[5mC]*eT*eA*eA*eA*eA*eA*eT*e[5mC]*e[5mC]*eT*eT*eA*eT) [compound 327888]
Reply: NOT MET

Query: Request: 327942 (antisense e[5mC]*e[5mC]*eA*eT*e[5mC]*eT*eT*eT*eA*e[5mC]*e[5mC]*eA*eG*eA*e[5mC]*eA*eG*eT*eG*eT*eT) [compound 327942]
Reply: MET

Query: Request: 327889 (antisense eG*eT*eG*eG*eT*eA*eA*eT*e[5mC]*e[5mC]*e[5mC]*eT*eG*eG*e[5mC]*eA*eA*eT*eG*eT*eG*eA*eT) [compound 327889]
Reply: NOT MET

Query: Request: 327925 (antisense eT*eA*eG*e[5mC]*eT*eG*eG*eT*eT*eG*eA*eA*eG*eG*eG*eG*eA*e[5mC]*e[5mC]*eA*eA) [compound 327925]
Reply: MET

Query: Request: 327938 (antisense eA*eA*e[5mC]*eA*eA*eT*eA*e[5mC]*eA*eA*e[5mC]*eT*eT*eA*e[5mC]*eT*eA*e[5mC]*e[5mC]*eT*e[5mC]*eA) [compound 327938]
Reply: MET

Query: Request: 327905 (antisense e[5mC]*eA*eG*eA*e[5mC]*eT*e[5mC]*e[5mC]*eG*eG*eT*eG*eG*eA*eA*eT*eG*eA*eA*eG*eG*eA) [compound 327905]
Reply: NOT MET
